Data origin: patent US9102752B2

List of Epitope mapping, fine specificity analysis, serum of subject P101 values.
System: anti-Aβ antibodies in sera of vaccinated patients
Assay: Epitope mapping, competitive binding inhibition EIA with patient sera (10-mer peptides, IC50)
Parameters: species or system human
Conditions: serum 16 wpi of vaccinated patient P101
Quick one: just the number, no unit, thanks!

substance: 13 (EVKMDAEFRH; PROPEP (1)..(10) Abeta -4-6 or APP 770(E668-H677); listed as Homo sapiens) [compound 13]
data value: 1

substance: 15 (KMDAEFRHDS; PEPTIDE (1)..(10) Abeta -2-8 or APP 770(K670-S679); listed as Homo sapiens) [compound 15]
data value: 94

substance: 17 (AEFRHDSGYE; PEPTIDE (1)..(10) Abeta 2-11 or APP 770(A673-E682); listed as Homo sapiens) [compound 17]
data value: 2

Below: the item to evaluate.
input: Requested field: Epitope mapping, fine specificity analysis, serum of subject P101. Item: 19 (FRHDSGYEVH; PEPTIDE (1)..(10) Abeta 4-13 or APP 770(F675-H684); listed as Homo sapiens) [compound 19]
output: 0
